B1: library; a variant is named by its letters at N, in order (parent)
chain: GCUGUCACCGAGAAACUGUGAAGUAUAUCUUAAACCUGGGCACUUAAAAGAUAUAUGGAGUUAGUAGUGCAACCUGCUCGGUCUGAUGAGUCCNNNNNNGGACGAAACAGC

variants of: B1; test: normalized RNA/DNA level without ligand (relative to sTRSVctl = 100) (log10 (% of sTRSVctl)); HEK293T; ligand: cyclic di-GMP (c-di-GMP-II aptamer); higher = less ribozyme self-cleavage, higher mRNA level; settings: reporter: mCherry (pCS4076), ligand present: no
measured-endpoint: normalized RNA/DNA level without ligand (log10)
Reply with just the number.

Completed entries (count: 10):
GCUGUCACCGAGAAACUGUGAAGUAUAUCUUAAACCUGGGCACUUAAAAGAUAUAUGGAGUUAGUAGUGCAACCUGCUCGGUCUGAUGAGUCCCGUGAUGGACGAAACAGC [CGUGAU]; 1.45
GCUGUCACCGAGAAACUGUGAAGUAUAUCUUAAACCUGGGCACUUAAAAGAUAUAUGGAGUUAGUAGUGCAACCUGCUCGGUCUGAUGAGUCCAUCGGGGGACGAAACAGC [AUCGGG]; 1.67
GCUGUCACCGAGAAACUGUGAAGUAUAUCUUAAACCUGGGCACUUAAAAGAUAUAUGGAGUUAGUAGUGCAACCUGCUCGGUCUGAUGAGUCCAGCGUGGGACGAAACAGC [AGCGUG]; 1.6
GCUGUCACCGAGAAACUGUGAAGUAUAUCUUAAACCUGGGCACUUAAAAGAUAUAUGGAGUUAGUAGUGCAACCUGCUCGGUCUGAUGAGUCCUCUGUUGGACGAAACAGC [UCUGUU]; 1.64
GCUGUCACCGAGAAACUGUGAAGUAUAUCUUAAACCUGGGCACUUAAAAGAUAUAUGGAGUUAGUAGUGCAACCUGCUCGGUCUGAUGAGUCCGGCUGAGGACGAAACAGC [GGCUGA]; 1.54
GCUGUCACCGAGAAACUGUGAAGUAUAUCUUAAACCUGGGCACUUAAAAGAUAUAUGGAGUUAGUAGUGCAACCUGCUCGGUCUGAUGAGUCCCGUCCUGGACGAAACAGC [CGUCCU]; 1.6
GCUGUCACCGAGAAACUGUGAAGUAUAUCUUAAACCUGGGCACUUAAAAGAUAUAUGGAGUUAGUAGUGCAACCUGCUCGGUCUGAUGAGUCCGUAGUUGGACGAAACAGC [GUAGUU]; 1.61
GCUGUCACCGAGAAACUGUGAAGUAUAUCUUAAACCUGGGCACUUAAAAGAUAUAUGGAGUUAGUAGUGCAACCUGCUCGGUCUGAUGAGUCCAGGCGGGGACGAAACAGC [AGGCGG]; 1.79
GCUGUCACCGAGAAACUGUGAAGUAUAUCUUAAACCUGGGCACUUAAAAGAUAUAUGGAGUUAGUAGUGCAACCUGCUCGGUCUGAUGAGUCCAGCGAUGGACGAAACAGC [AGCGAU]; 1.71
GCUGUCACCGAGAAACUGUGAAGUAUAUCUUAAACCUGGGCACUUAAAAGAUAUAUGGAGUUAGUAGUGCAACCUGCUCGGUCUGAUGAGUCCCCACUUGGACGAAACAGC [CCACUU]; 1.5

# input Endpoint output: normalized RNA/DNA level without ligand (log10) of GCUGUCACCGAGAAACUGUGAAGUAUAUCUUAAACCUGGGCACUUAAAAGAUAUAUGGAGUUAGUAGUGCAACCUGCUCGGUCUGAUGAGUCCAGUACCGGACGAAACAGC [AGUACC] . Value?
# output 1.66

# input Given GCUGUCACCGAGAAACUGUGAAGUAUAUCUUAAACCUGGGCACUUAAAAGAUAUAUGGAGUUAGUAGUGCAACCUGCUCGGUCUGAUGAGUCCAGCGCUGGACGAAACAGC [AGCGCU] , state its recorded normalized RNA/DNA level without ligand (log10).
# output 1.7

# input variant: GCUGUCACCGAGAAACUGUGAAGUAUAUCUUAAACCUGGGCACUUAAAAGAUAUAUGGAGUUAGUAGUGCAACCUGCUCGGUCUGAUGAGUCCCAUGAGGGACGAAACAGC [CAUGAG] ; wanted: its normalized RNA/DNA level without ligand (log10)
# output 1.71

# input Dear colleague, I am looking for the recorded normalized RNA/DNA level without ligand (log10) of the following variant: GCUGUCACCGAGAAACUGUGAAGUAUAUCUUAAACCUGGGCACUUAAAAGAUAUAUGGAGUUAGUAGUGCAACCUGCUCGGUCUGAUGAGUCCCCCUUCGGACGAAACAGC [CCCUUC]
# output 1.73

# input Report normalized RNA/DNA level without ligand (log10) for GCUGUCACCGAGAAACUGUGAAGUAUAUCUUAAACCUGGGCACUUAAAAGAUAUAUGGAGUUAGUAGUGCAACCUGCUCGGUCUGAUGAGUCCAAUCGGGGACGAAACAGC [AAUCGG] please.
# output 1.6

# input Find the recorded normalized RNA/DNA level without ligand (log10) belonging to GCUGUCACCGAGAAACUGUGAAGUAUAUCUUAAACCUGGGCACUUAAAAGAUAUAUGGAGUUAGUAGUGCAACCUGCUCGGUCUGAUGAGUCCGCCUAUGGACGAAACAGC [GCCUAU] and report it.
# output 1.66

# input Find the recorded normalized RNA/DNA level without ligand (log10) belonging to GCUGUCACCGAGAAACUGUGAAGUAUAUCUUAAACCUGGGCACUUAAAAGAUAUAUGGAGUUAGUAGUGCAACCUGCUCGGUCUGAUGAGUCCAGGAAAGGACGAAACAGC [AGGAAA] and report it.
# output 1.33

# input Can you look up the measured normalized RNA/DNA level without ligand (log10) of GCUGUCACCGAGAAACUGUGAAGUAUAUCUUAAACCUGGGCACUUAAAAGAUAUAUGGAGUUAGUAGUGCAACCUGCUCGGUCUGAUGAGUCCUGGAUUGGACGAAACAGC [UGGAUU] for me?
# output 1.67

# input What value of measured normalized RNA/DNA level without ligand (log10) is listed for GCUGUCACCGAGAAACUGUGAAGUAUAUCUUAAACCUGGGCACUUAAAAGAUAUAUGGAGUUAGUAGUGCAACCUGCUCGGUCUGAUGAGUCCUCUACCGGACGAAACAGC [UCUACC] ?
# output 1.8

# input GET /values?readout=normalized RNA/DNA level without ligand (log10)&item= GCUGUCACCGAGAAACUGUGAAGUAUAUCUUAAACCUGGGCACUUAAAAGAUAUAUGGAGUUAGUAGUGCAACCUGCUCGGUCUGAUGAGUCCGUUCUAGGACGAAACAGC [GUUCUA]
# output 1.64

# input I have this variant here, GCUGUCACCGAGAAACUGUGAAGUAUAUCUUAAACCUGGGCACUUAAAAGAUAUAUGGAGUUAGUAGUGCAACCUGCUCGGUCUGAUGAGUCCGACAUGGGACGAAACAGC [GACAUG] , and I need its recorded normalized RNA/DNA level without ligand (log10).
# output 1.61

# input Need normalized RNA/DNA level without ligand (log10), item GCUGUCACCGAGAAACUGUGAAGUAUAUCUUAAACCUGGGCACUUAAAAGAUAUAUGGAGUUAGUAGUGCAACCUGCUCGGUCUGAUGAGUCCCAUGGUGGACGAAACAGC [CAUGGU]
# output 1.65

# input So what's the measured normalized RNA/DNA level without ligand (log10) for this one? GCUGUCACCGAGAAACUGUGAAGUAUAUCUUAAACCUGGGCACUUAAAAGAUAUAUGGAGUUAGUAGUGCAACCUGCUCGGUCUGAUGAGUCCAUGAAAGGACGAAACAGC [AUGAAA]
# output 1.4

# input Look at this variant and give its reported normalized RNA/DNA level without ligand (log10). GCUGUCACCGAGAAACUGUGAAGUAUAUCUUAAACCUGGGCACUUAAAAGAUAUAUGGAGUUAGUAGUGCAACCUGCUCGGUCUGAUGAGUCCCCCCCCGGACGAAACAGC [CCCCCC]
# output 1.82

# input Entry GCUGUCACCGAGAAACUGUGAAGUAUAUCUUAAACCUGGGCACUUAAAAGAUAUAUGGAGUUAGUAGUGCAACCUGCUCGGUCUGAUGAGUCCGGGUCAGGACGAAACAGC [GGGUCA] : reported normalized RNA/DNA level without ligand (log10) = ?
# output 1.83

# input Find the recorded normalized RNA/DNA level without ligand (log10) belonging to GCUGUCACCGAGAAACUGUGAAGUAUAUCUUAAACCUGGGCACUUAAAAGAUAUAUGGAGUUAGUAGUGCAACCUGCUCGGUCUGAUGAGUCCAACAACGGACGAAACAGC [AACAAC] and report it.
# output 1.54

# input Would you kindly share the measured normalized RNA/DNA level without ligand (log10) for GCUGUCACCGAGAAACUGUGAAGUAUAUCUUAAACCUGGGCACUUAAAAGAUAUAUGGAGUUAGUAGUGCAACCUGCUCGGUCUGAUGAGUCCGAGAGGGGACGAAACAGC [GAGAGG] ?
# output 1.75
